# protocol summary: Cytotoxicity against african green monkey Vero C1008 cells after 72 hrs by MTT assay
# Assay type: cell-based
# measurement context: chlorocebus sabaeus
quantity kind: CC50 at 72 h (µM)
Numbers only; they are read as µM.

Look up CC50 at 72 h: NNC(=O)c1ccncc1 [ISONIAZID]
1460

More entries:
Look up CC50 at 72 h: "O=C(/C=C/c1ccc(Cl)cc1)Nc1nnc(-c2ccccc2)[nH]1"
1620

Can you check "O=C(/C=C/c1cccc(Cl)c1)Nc1nnc(-c2ccccc2)[nH]1" next?
1470

Can you check "O=C(/C=C/c1cccc([N+](=O)[O-])c1)Nc1nnc(-c2ccccc2)[nH]1" next?
1990

Can you check "COc1ccc(/C=C/C(=O)Nc2nnc(-c3ccccc3)[nH]2)cc1OC" next?
1210

Can you check "Cc1ccc(/C=C/C(=O)Nc2nnc(-c3ccccc3)[nH]2)cc1" next?
1760

Can you check "Nc1ccc(/C=C/C(=O)Nc2nnc(-c3ccccc3)[nH]2)cc1" next?
1910

Can you check "O=C(/C=C/c1ccccc1)Nc1nnc(-c2ccccc2)[nH]1" next?
1570

Can you check "C=C(C)COc1ccc(/C=C/C(=O)Nc2nnc(-c3ccccc3)[nH]2)cc1" next?
1420

Can you check "O=C(/C=C/c1ccco1)Nc1nnc(-c2ccccc2)[nH]1" next?
2180
